target: Nrf2-Keap1 complex (Homo sapiens); assay: cell-based; type: cell-based
Sequence (Q14145 whole entry, one chain of several): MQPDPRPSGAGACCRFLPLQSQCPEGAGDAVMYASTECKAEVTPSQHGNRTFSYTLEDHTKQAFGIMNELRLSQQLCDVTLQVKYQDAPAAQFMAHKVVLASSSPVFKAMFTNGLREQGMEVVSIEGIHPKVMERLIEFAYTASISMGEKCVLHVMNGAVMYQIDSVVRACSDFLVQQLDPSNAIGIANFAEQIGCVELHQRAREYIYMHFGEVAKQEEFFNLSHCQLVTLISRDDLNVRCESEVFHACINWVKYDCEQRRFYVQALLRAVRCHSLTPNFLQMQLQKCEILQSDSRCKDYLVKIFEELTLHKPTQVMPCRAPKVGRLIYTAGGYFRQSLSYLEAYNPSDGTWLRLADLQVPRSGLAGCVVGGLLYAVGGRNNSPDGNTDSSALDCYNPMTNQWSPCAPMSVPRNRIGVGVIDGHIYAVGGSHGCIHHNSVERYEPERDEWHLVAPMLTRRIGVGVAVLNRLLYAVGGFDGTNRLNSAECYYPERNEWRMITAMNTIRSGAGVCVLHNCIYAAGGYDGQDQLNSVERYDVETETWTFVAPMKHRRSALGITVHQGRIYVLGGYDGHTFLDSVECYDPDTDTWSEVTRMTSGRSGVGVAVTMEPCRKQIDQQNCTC
MEASURED PARAMETER: Activation 100 nL (%)
Give the number; % is assumed, so skip it.

Enquiry: Which Activation 100 nL value belongs to CCCCC1C(=O)N(c2ccccc2)N(c2ccc(O)cc2)C1=O (stereo not drawn) [OXYPHENBUTAZONE, reference compound] ?
Return: 113

Enquiry: // returns reported Activation 100 nL for input C[C@@H]1C(=O)O[C@H]2[C@H]1CC[C@@]1(C)C=CC(=O)[C@@]3(C)O[C@@]213 [EPOXY(4,5alpha)-4,5-DIHYDROSANTONIN]
Return: 227

Enquiry: Tell me the measured Activation 100 nL of COC(=O)[C@H](O)[C@H]1C(C)(C)[C@H](OC(C)=O)[C@@H]2CC3=C4CC(=O)O[C@@H](c5ccoc5)[C@]4(C)CC[C@@H]3[C@@]1(C)C2=O [SWIETENOLIDE-3-ACETATE] , please.
Return: 70

Enquiry: What measured Activation 100 nL goes with CC(=O)O[C@H]1CC[C@]2(C)C(C[C@@H](OC(C)=O)[C@]3(C)C4=CC(=O)O[C@H](c5ccoc5)[C@@]4(C)CCC23)C1(C)C (stereo partly drawn) [3-DEOXO-3beta-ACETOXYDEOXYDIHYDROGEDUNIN] ?
Return: 59

Enquiry: # get_value(readout='Activation 100 nL', item= O=C1OC(=O)[C@H]2[C@@H]1[C@@H]1CC[C@H]2O1 )
Return: 45

Enquiry: Look at this compound and give its reported Activation 100 nL. CC(=O)O[C@H]1C[C@@H](OC(C)=O)C(C)(C)[C@@H]2CC(=O)[C@]3(C)[C@H](CC[C@@]4(C)[C@H](c5ccoc5)OC(=O)[C@H]5O[C@]543)[C@@]12C
Return: 168
